# Tested Target: T1, human MSLN-R3-his protein (human, UniProt Q13421 487-598)
# T1 construct: it is put last here; also called human MSLN-R3 protein; hMSLN-R3-his; not shown: His tag
# T1 sequence (Q13421 495-606): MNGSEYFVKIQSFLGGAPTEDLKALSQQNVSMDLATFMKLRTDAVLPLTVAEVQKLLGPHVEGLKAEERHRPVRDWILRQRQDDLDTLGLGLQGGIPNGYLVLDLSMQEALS
# Run Description: ELISA on coated antigen, antibody 0.2 nM
Result Type: OD450 (OD)

• S009-F7.66.12 (antibody, human IgG1, kappa, V domains shown, Human-murine chimeric antibody, human IgG1 heavy and kappa light constant regions) VH: QIPLQQSGPELVKPGASVRISCKASDYAFSSSWMNWVKQRPEKGLEWIGRIFVESGNTHYNDKFNGKATLTADKSSRTAYIQLSSLTSEDSAVYFCTRENIFYHGHSSWFAYWGQGTLVTVSA VL: DIVLTQSPASLVVSLGQRATISCRAGESVDDFGISYVHWYQQKPGQPPKLLIYRAANLESGIPARFSGSGSRTDFTLTINPVETDDVAIYYCQQNNKDPFTFGSGTKLEIKR = 1.95
• S009-F7.33.24 (antibody, human IgG1, kappa, V domains shown, Human-murine chimeric antibody, human IgG1 heavy and kappa light constant regions) VH: QVQLQQPGTELVKPGASVKLSCKASGYTFTSYWMHWVKQRPGQGLEWIGNVNPSNGGSNYNEKFKNKATLTVDKSSSTADMQLNSLTSEDSAVYYCAPHYIGSRPGFAYWGQGTLVTVSG VL: DIVMTQSQKFMSTSVGDRVSVTCKASQNVGTNIAWYQQKPGQSPKALIYSASYRYSGVPDRFTGSGSGTDFTLTITNVQSEDLAEYFCQQYNSYPLTFGGGTKVEIKR = 2.7
• S009-F7.21.16 (antibody, human IgG1, kappa, V domains shown, Human-murine chimeric antibody, human IgG1 heavy and kappa light constant regions) VH: QVQLQQPGTELVKPGASVKLSCKASGYTFTTFWMHWVKQRPGQGLEWIGGVNPTNGGTNYNEKFRTKATLTVDKSSTTADMQLSSLTSEDSAVYYCAPHYISSRPGFAYWGQGTLVTVSG VL: DIVMTQSQKFMSTSGGDRVSVTCKASQNVGTNVAWYQQKPGQSPKALIYSASYRYSGVPDRFTGSGSGTDFILTISNVQSEDLAEYFCQQYNSYPLTFGGGTKLEIKR = 2.5

meta.source: patent US20250250357A1
